tested on: MCF7; experiment: Antiproliferative activity against human MCF7 cells assessed as inhibition of cell growth by MTT assay; format: functional, cell-based
RECORDED_METRIC: IC50 (µM)

Worked examples, 3 compounds total:
CHEMICAL_STRUCTURE: COc1cc2nc(-c3cc(OC)c(OC)cc3OC)[nH]c2cc1/C=C/C(=O)N1CCOCC1
EXPERIMENTAL_SYSTEM: MCF7
RESULT_UNIT: µM
IC50: 15.5
//
CHEMICAL_STRUCTURE: COc1cc2nc(-c3cc(OC)c(OC)cc3OC)[nH]c2cc1/C=C(\C)C(N)=O
EXPERIMENTAL_SYSTEM: MCF7
RESULT_UNIT: µM
IC50: 57.3
//
CHEMICAL_STRUCTURE: CCOC(=O)/C=C/c1cc2[nH]c(-c3cc(OC)c(OC)cc3OC)nc2cc1OC
EXPERIMENTAL_SYSTEM: MCF7
RESULT_UNIT: µM
IC50: 22

P: COc1ccc(C#Cc2cc3[nH]c(-c4cc(OC)c(OC)cc4OC)nc3cc2OC)cc1
Q: COc1cc2nc(-c3cc(OC)c(OC)cc3OC)[nH]c2cc1C#Cc1ccc(C(F)(F)F)cc1
Ask: Hey, between P and Q which has a smaller measured IC50? Return value: the label identifying the chosen record.
Result: P
(P: 7.14 µM, Q: 66.7 µM)

A: COc1cc2nc(-c3cc(OC)c(OC)cc3OC)[nH]c2cc1C#Cc1ccccc1Cl
B: Nc1cc(C(F)(F)F)c(-c2cc(N3CCOCC3)nc(N3CCOCC3)n2)cn1
Ask: Hey, between A and B which has a smaller measured IC50? Return value: the label identifying the chosen record.
Result: B

----------
system: MCF7; assay: Antiproliferative activity against human MCF7 cells assessed as inhibition of cell growth by MTT assay; assay type: functional, cell-based
pIC50: −log10 of the molar value.
RECORDED_METRIC: pIC50

A: COc1cc2nc(-c3cc(OC)c(OC)cc3OC)[nH]c2cc1/C=C/C(N)=O
B: COc1cc2nc(-c3cc(OC)c(OC)cc3OC)[nH]c2cc1/C=C/C(=O)NC(C)(C)C
C: COc1cc2nc(-c3cc(OC)c(OC)cc3OC)[nH]c2cc1C#Cc1ccccc1F
D: COc1cc2nc(-c3cc(OC)c(OC)cc3OC)[nH]c2cc1C#Cc1ccc(Cl)cc1
Ask: hey, can you rank those molecules up there by pIC50? biggest number first please List each label, following the requested order.
Result: C, D, B, A

----------
tested on: HCT-116; assay: Antiproliferative activity against human HCT-116 cells assessed as inhibition of cell growth by MTT assay; type: functional, cell-based
pIC50: −log10 of the molar value.
RECORDED_METRIC: pIC50

Worked examples, 2 molecules total:
MOLECULE: COc1cc2nc(-c3cc(OC)c(OC)cc3OC)[nH]c2cc1C#Cc1ccccc1F
RECORDED_METRIC: pIC50
RESULT_VALUE: 5.77

MOLECULE: COc1cc2nc(-c3cc(OC)c(OC)cc3OC)[nH]c2cc1/C=C(\C)C(N)=O
RECORDED_METRIC: pIC50
RESULT_VALUE: 4.48

A: COc1cc2nc(-c3ccc(OC)c(OC)c3OC)[nH]c2cc1/C=C/C(=O)NC(C)(C)C
B: COc1cc2nc(-c3cc(OC)c(OC)cc3OC)[nH]c2cc1/C=C/C(N)=O
Ask: Field: entry with larger pIC50 (options A / B ). Return value: the label identifying the chosen record.
Result: A

a: COc1cc2nc(-c3ccc(OC)c(OC)c3OC)[nH]c2cc1C#Cc1ccc(Cl)cc1
b: COc1cc2nc(-c3cc(OC)c(OC)cc3OC)[nH]c2cc1C#Cc1ccc(Cl)cc1
Ask: Hey, between a and b which has a smaller measured pIC50? Return value: the label identifying the chosen record.
Result: a

----------
system: HCT-116; experiment: Antiproliferative activity against human HCT-116 cells assessed as inhibition of cell growth by MTT assay; type: functional, cell-based
pIC50: −log10 of the molar value.
RECORDED_METRIC: pIC50

Worked examples, 5 compounds total:
CHEMICAL_STRUCTURE: COc1cc2nc(-c3ccc(OC)c(OC)c3OC)[nH]c2cc1C#Cc1ccccc1Cl
pIC50: 4.09
--
CHEMICAL_STRUCTURE: COc1cc2nc(-c3ccc(OC)c(OC)c3OC)[nH]c2cc1C#Cc1ccccc1F
pIC50: 4.41
--
CHEMICAL_STRUCTURE: COc1cc2nc(-c3ccc(OC)c(OC)c3OC)[nH]c2cc1/C=C/C(=O)N1CCOCC1
pIC50: 4.17
--
CHEMICAL_STRUCTURE: CCOC(=O)/C=C/c1cc2[nH]c(-c3cc(OC)c(OC)cc3OC)nc2cc1OC
pIC50: 5.16
--
CHEMICAL_STRUCTURE: COc1cc2nc(-c3cc(OC)c(OC)cc3OC)[nH]c2cc1/C=C/C(=O)NC(C)C
pIC50: 4.43

I: CCOC(=O)/C=C/c1cc2[nH]c(-c3ccc(OC)c(OC)c3OC)nc2cc1OC
II: COc1cc2nc(-c3cc(OC)c(OC)cc3OC)[nH]c2cc1/C=C/C(=O)N1CCOCC1
Ask: Field: entry with larger pIC50 (options I / II ). Return value: the label identifying the chosen record.
Result: II

----------
As shown below, each of these compounds has a reported IC50 value.
system: SiHa; assay: Antiproliferative activity against human SiHa cells assessed as inhibition of cell growth by MTT assay; assay type: functional, cell-based
The reply should contain only the number, in µM.

Worked examples, 2 compounds total:
CHEMICAL_STRUCTURE: COc1cc2nc(-c3ccc(OC)c(OC)c3OC)[nH]c2cc1C#Cc1ccc(C(F)(F)F)cc1
RESULT_UNIT: µM
RESULT_VALUE: 86.6

CHEMICAL_STRUCTURE: COc1cc2nc(-c3cc(OC)c(OC)cc3OC)[nH]c2cc1/C=C(\C)C(N)=O
RESULT_UNIT: µM
RESULT_VALUE: 33.5

get_value(item= COc1cc2nc(-c3cc(OC)c(OC)cc3OC)[nH]c2cc1C#Cc1ccc(C(F)(F)F)cc1 , readout=IC50) returns 24.4

get_value(item= COc1cc2nc(-c3cc(OC)c(OC)cc3OC)[nH]c2cc1/C=C/C(N)=O , readout=IC50) returns 5.27

----------
system: HCT-116; test: Antiproliferative activity against human HCT-116 cells assessed as inhibition of cell growth by MTT assay; format: functional, cell-based
pIC50: −log10 of the molar value.
RECORDED_METRIC: pIC50

Worked examples, 4 molecules total:
MOLECULE: COc1cc2nc(-c3ccc(OC)c(OC)c3OC)[nH]c2cc1/C=C/C(=O)NCCO
RESULT_VALUE: 4.27
--
MOLECULE: COc1ccc(C#Cc2cc3[nH]c(-c4cc(OC)c(OC)cc4OC)nc3cc2OC)cc1
RESULT_VALUE: 5.52
--
MOLECULE: Nc1cc(C(F)(F)F)c(-c2cc(N3CCOCC3)nc(N3CCOCC3)n2)cn1 [BUPARLISIB]
RESULT_VALUE: 5.43
--
MOLECULE: COc1cc2nc(-c3cc(OC)c(OC)cc3OC)[nH]c2cc1/C=C/C(=O)NC(C)(C)C
RESULT_VALUE: 5.51

P: COc1cc2nc(-c3ccc(OC)c(OC)c3OC)[nH]c2cc1/C=C/C(=O)NC(C)C
Q: COc1cc2nc(-c3cc(OC)c(OC)cc3OC)[nH]c2cc1C#Cc1ccc(C(F)(F)F)cc1
Ask: Hey, between P and Q which has a smaller measured pIC50? Return value: the label identifying the chosen record.
Result: P
(P: 4.42, Q: 5.35)
